Assign pKd to each entry below.
# system-tested: Serine/threonine-protein kinase B-raf (Homo sapiens, UniProt P15056, V600E)
# Sequence (P15056 2-766 V600E limits assumed): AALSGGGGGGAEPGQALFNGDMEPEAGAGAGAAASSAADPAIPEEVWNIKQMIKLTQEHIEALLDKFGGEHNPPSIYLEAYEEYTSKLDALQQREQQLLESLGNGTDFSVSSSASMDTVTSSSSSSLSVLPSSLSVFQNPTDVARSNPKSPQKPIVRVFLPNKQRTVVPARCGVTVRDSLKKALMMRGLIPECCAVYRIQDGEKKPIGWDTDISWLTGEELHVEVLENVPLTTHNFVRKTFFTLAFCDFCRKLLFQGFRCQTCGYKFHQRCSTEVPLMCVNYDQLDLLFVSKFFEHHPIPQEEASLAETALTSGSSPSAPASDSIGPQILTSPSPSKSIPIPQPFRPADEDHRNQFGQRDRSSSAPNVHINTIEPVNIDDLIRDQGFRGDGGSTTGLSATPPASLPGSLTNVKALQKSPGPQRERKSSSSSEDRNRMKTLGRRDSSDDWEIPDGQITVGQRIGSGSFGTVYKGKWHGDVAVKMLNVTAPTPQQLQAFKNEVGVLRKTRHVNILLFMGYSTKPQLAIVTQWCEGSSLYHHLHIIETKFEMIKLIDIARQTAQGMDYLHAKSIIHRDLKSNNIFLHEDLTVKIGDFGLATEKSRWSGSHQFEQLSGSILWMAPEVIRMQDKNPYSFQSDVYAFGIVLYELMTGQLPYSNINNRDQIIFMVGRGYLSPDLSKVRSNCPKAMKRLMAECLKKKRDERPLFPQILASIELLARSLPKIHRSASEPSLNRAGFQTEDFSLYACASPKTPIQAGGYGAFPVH
# assay-details: Binding affinity to B-Raf V600E mutant (unknown origin)
Numbers only, as −log10 of the molar value.

Prompt: Fetch value of pKd on Serine/threonine-protein kinase B-raf (Homo sapiens, UniProt P15056, V600E) for CCN(C)S(=O)(=O)Nc1ccc(F)c(C(=O)c2c[nH]c3ncc(-c4ccc(Cl)cc4)cc23)c1F .
Response: 5.85

Others:
Prompt: Fetch value of pKd on Serine/threonine-protein kinase B-raf (Homo sapiens, UniProt P15056, V600E) for CCN(C)S(=O)(=O)Nc1ccc(F)c(C(=O)c2c[nH]c3ncc(Cl)cc23)c1F .
Response: 6.26
